SI (SIR) HepG2 by entry:
- Test system: HepG2 (human liver carcinoma) cell line
- Test Name: Cytotoxicity assay HepG2
Quick one: just the number, no unit, thanks!

// worked examples, SI (SIR) HepG2 included
Indicate its recorded SI (SIR) HepG2; the compound in question is CCC(=O)Oc1cc2c(cc1OC(=O)CC)[C@@H](OC(=O)CC)[C@@H]1[C@@]3(C)CCCC(C)(C)[C@@H]3CC[C@]1(C)O2 [Compound 21]
22.9

Indicate its recorded SI (SIR) HepG2; the compound in question is CC1(C)CCC[C@]2(C)[C@H]3C=C4C=C(O)C(=O)C=C4O[C@@]3(C)CC[C@@H]12 [Compound 1, (+)-Puupehenone]
23.5

Let's switch to this compound now.
Indicate its recorded SI (SIR) HepG2; the compound in question is CO[C@@H]1c2cc(OC(C)=O)c(OC(C)=O)cc2O[C@@]2(C)CC[C@H]3C(C)(C)CCC[C@]3(C)[C@@H]12 [Compound 15]
12.0

Value source: patent US20250288553A1
